// data source = PubChem BioAssay (NCI)

Reported TGI values for the following compounds.
Test system: UACC-257 melanoma
Assay: NCI tumour cell line growth inhibition, 48 h

• CCCCc1nc2cc(/C=C/C(=O)NO)ccc2n1CCN(CC)CC = 0.58 µM
• Cc1nn(-c2ccccc2)c2c1N=C(C(=O)O)CC(c1ccccc1)=N2 = > 10 µM
• N#Cc1ccc2oc3ccc(C#N)cc3c(=O)c2c1 = > 100 µM

Give reported TGI for CSc1nc(=O)c(C#N)c(-c2ccccc2)n1C1OC(COC(C)=O)C(OC(C)=O)C(OC(C)=O)C1OC(C)=O (stereo unspecified) (UACC-257 melanoma)
> 100 µM

Give reported TGI for CN(C)/C=N/S(=O)(=O)c1nn2c(C=O)c(-c3cc4ccccc4oc3=O)nc2s1 (UACC-257 melanoma)
29.3 µM

Give reported TGI for O=[N+]([O-])c1ccc2c(c1)S(=O)c1ccccc1-2 (stereo unspecified) (UACC-257 melanoma)
> 100 µM

Give reported TGI for CC(C)(CN1CCCCC1)C(=O)/C=C/c1c(Cl)cccc1Cl (UACC-257 melanoma)
6.36 µM

Give reported TGI for Cc1ccsc1/C=N/Nc1ccccn1 (UACC-257 melanoma)
> 100 µM

Give reported TGI for CN1c2ccccc2C(C)(C)C12CC(c1ccc(Cl)c(S(=O)(=O)N3CCCC3)c1)=NO2 (stereo unspecified) (UACC-257 melanoma)
> 100 µM

Give reported TGI for CCOC(=O)c1cnc2c(cnn2CC)c1NN=C(C)C (UACC-257 melanoma)
> 100 µM

Give reported TGI for COc1ccc2sc3c(NCCCNCCO)nc4ccccc4c3c(=O)c2c1 (UACC-257 melanoma)
3.99 µM
